molecular target: Cytochrome P450 2C9 (Homo sapiens) (UniProt P11712); test: Cytochrome P450 family 2 subfamily C member 9 (CYP2C9) small molecule antagonists: luciferase biochemical (cell-free) qHTS assay (AID 1645842); details: P450-Glo CYP2C9 enzyme assay, luciferin luminescence; series mostly up to 57.4 µM; further: nearly all actives have a fitted effect of over 55% in size
Sequence (P11712 whole entry, looked up): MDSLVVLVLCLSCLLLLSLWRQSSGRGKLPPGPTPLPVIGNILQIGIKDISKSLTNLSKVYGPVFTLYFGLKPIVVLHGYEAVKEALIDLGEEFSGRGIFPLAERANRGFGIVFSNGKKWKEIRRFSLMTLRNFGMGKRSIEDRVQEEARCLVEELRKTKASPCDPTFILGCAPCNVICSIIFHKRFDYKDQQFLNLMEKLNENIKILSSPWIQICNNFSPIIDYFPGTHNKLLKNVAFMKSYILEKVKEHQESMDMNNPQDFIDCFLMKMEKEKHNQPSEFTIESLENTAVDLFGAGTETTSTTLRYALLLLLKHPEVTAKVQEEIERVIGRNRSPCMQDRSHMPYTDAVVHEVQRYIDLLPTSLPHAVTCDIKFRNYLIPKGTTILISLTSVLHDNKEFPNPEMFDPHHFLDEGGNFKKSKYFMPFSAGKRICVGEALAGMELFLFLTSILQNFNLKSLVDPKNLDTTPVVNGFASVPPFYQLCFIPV
Results filed as inconclusive are left out. Calls of active or inactive are those of the source. The call rests on the fitted dose curve; in most records, active means well fitted inhibition curve with a large enough effect in the repeat runs; inconclusive means weak or mixed curves; inactive means no such curve, though single readings can be large or run the other way.
The reply should be one of these categories: active, inactive

Outcome? CC(=O)N[C@H](Cc1c[nH]c2ccccc12)C(=O)OCc1cc(C(F)(F)F)cc(C(F)(F)F)c1
active

Outcome? O=C(CC1CC(c2ccc(F)cc2F)=NO1)N1CCOCC1 (stereo not given)
inactive

Outcome? Cc1oc2nc3c(c(NC(=O)CN4CCCC4=O)c2c1C)CCCC3
inactive

Outcome? O=C(N[C@@H]1CC[C@@H](c2cccc(F)c2F)CN(CC(F)(F)F)C1=O)N1CCC(n2c(=O)[nH]c3ncccc32)CC1
active

Outcome? O=C(O)c1cccc(CN2C(=O)/C(=C(\c3ccccc3)c3ccc(Cl)cc3)c3ccccc32)c1
active

Outcome? Nc1ncnc2c1C(=O)N(c1ccc(C3CCC(CC(=O)O)CC3)cc1)CCO2 (stereo not given)
inactive

Outcome? CC1(C)CC(NC(=O)C(=O)Nc2ccc(Cl)cc2)CC(C)(C)N1
inactive

Outcome? O=C(c1ccc(Cl)c([N+](=O)[O-])c1)N1CCN(c2ccccc2F)CC1
active

Outcome? COc1ccc(CCc2nc3cc(-c4c(C)noc4C)ccc3n2C[C@H](C)N2CCOCC2)cc1Cl
active

Outcome? CCOC(=O)C1=C(N)Oc2ccc(Cl)cc2C1C(C#N)C(=O)OCC (stereo not given)
active

Outcome? Oc1ccccc1-c1cc(-c2ccccc2F)[nH]n1
active

Outcome? Cc1cc(CNC(=O)c2cc(C(=O)NCc3ccc(F)c(C)c3)ncn2)ccc1F
inactive

Outcome? COc1cccc(CNc2ccc(S(=O)(=O)Nc3nc4ccccc4s3)cc2)c1O
active

Outcome? COc1ccc(NC(=O)c2ccc(-c3ccc(C(N)=O)cc3C)cc2)cc1N1CCN(C)CC1
inactive

Outcome? COC(=O)C(CC1CCCC1)c1ccc(S(C)(=O)=O)cc1 (stereo not given)
active

Outcome? O=C(NCC(=O)N1CCCC1)Nc1ccc2ccccc2c1
inactive

Outcome? CNc1nc(C)nc(N[C@H]2CCC[C@@H](C(=O)NCc3ccc(C#N)cc3C(F)(F)F)C2)n1
inactive

Outcome? CC(C)Oc1ccc(-c2nc(-c3cccc4c3CCC4NCCC(=O)O)no2)cc1C#N (stereo not given)
inactive

Outcome? CN1CCN(c2nc(-c3ccc(C(=O)NC4(C(=O)NCC#N)CCCCC4)cc3)cs2)CC1
active

Outcome? CNc1nc(Nc2cn(C(C)(C)C#N)nc2C)ncc1C(F)(F)F
active

Outcome? C[C@@H](c1ccccc1)N(C(N)=NC#N)c1cccc2ncccc12
active

Outcome? Cc1nc2cc(-c3cc(F)cc(C#N)c3)ccc2s1
active

Outcome? Cc1c(C)c(NCC(=O)N(C)C2CCN(Cc3ccc(C(N)=O)cc3)CC2)c(C)c(C)c1N
active

Outcome? O=C(c1c2ccccc2cc2ccccc12)N1CCC(N2CCC[C@@H](C(=O)N3CCOCC3)C2)CC1
inactive

Outcome? CNC(C)C(=O)NC(C(=O)N1CCCC1C(=O)Nc1cccc2ncccc12)C(C)C (stereo not given)
inactive

Outcome? C[C@@H](NC(=O)c1cc(C(=O)N[C@@H](Cc2ccccc2)[C@H](O)CNC2CC2)cc(N(C)S(C)(=O)=O)c1)c1ccccc1
active

Outcome? O=C(NC1Cc2ccccc2N(C[C@@H](O)CO)C1=O)c1cc2cc(Cl)sc2[nH]1 (stereo not given in full)
active

Outcome? Cc1ccc(Cl)cc1N(CC(=O)Nc1c(F)cccc1F)S(C)(=O)=O
active

Outcome? Cc1onc(-c2c(Cl)cccc2Cl)c1CC(=O)NCc1ccc(OCC(F)(F)F)nc1
active

Outcome? On1ncc(C2CCNCC2)c1-c1cccc(-c2ccccc2)c1
inactive

Outcome? COc1cc(Nc2ccc([N+](=O)[O-])cc2C(=O)O)cc2ccccc12
active

Outcome? COc1cccc(OC)c1-c1nc(C(=O)N[C@@H](CC(C)C)C(=O)O)cn1-c1ccnc2cc(Cl)ccc12
inactive

Outcome? COc1ccc(-n2[nH]c3c(cnc4ccccc43)c2=O)cc1
inactive

Outcome? Cc1cn(-c2cc(NC(=O)c3ccc(C)c(Nc4nccc(-c5cnccn5)n4)c3)cc(C(F)(F)F)c2)cn1
active

Outcome? COc1cccc(OC)c1-c1ccc(C[C@H](NC(=O)c2c(Cl)cccc2Cl)C(=O)O)cc1
active

Outcome? COc1ccc(C(=O)NCc2cc(C(C)C)no2)cc1OC1CCN(C)CC1
inactive

Outcome? N#Cc1cccc(-c2c[nH]c3ncnc(N4CCOCC4)c23)c1
active

Outcome? CCNC(=O)OC1CCN(c2nncc3cc(OC)c(OC)cc23)CC1
active

Outcome? Cc1cn(C[C@H](N)C(=O)O)c(=O)n(Cc2ccsc2C(=O)O)c1=O
inactive

Outcome? CCOC(=O)c1ccc(NC2CCCCC2)c(N)c1
active
